# Tested on: NOMO1
# PROTOCOL: cell viability relative to DMSO control; higher = less cytotoxic
# PARTICULARS: RPMI 5 mM glucose + 10% dialyzed FBS; 48 h; 0.19 µM
READOUT_KIND: cell viability

| COMPOUND | MEASUREMENT_TARGET | ASSAY_RESULT |
| --- | --- | --- |
| CC1=C(CC(=O)O)c2cc(F)ccc2/C1=C\c1ccc([S+](C)[O-])cc1 (centres undefined) | NOMO1 | 139% |
| CC1(C)CNc2cc(NC(=O)c3cccnc3NCc3ccncc3)ccc21 | NOMO1 | 96.3% |
| O=C(O)CCn1c2c(c3ccccc31)C[C@H](N[S+](=O)([O-])c1ccc(F)cc1)CC2 | NOMO1 | 102% |
| CN[C@@H](C)C(=O)N[C@H]1CN(C(=O)CC(C)C)CC[C@H]2CC[C@@H](C(=O)NC(c3ccccc3)c3ccccc3)N2C1=O | NOMO1 | 91.8% |

====

The compounds listed here are annotated with their cell viability.
# Test system: P12-Ichikawa
# PROTOCOL: cell viability relative to DMSO control; higher = less cytotoxic
# PARTICULARS: RPMI 5 mM glucose + 10% FBS; 48 h; 0.00702 µM
READOUT_KIND: cell viability (%)

| COMPOUND | MEASUREMENT_TARGET | ASSAY_RESULT |
| --- | --- | --- |
| COc1cc2c(Nc3ccc(Br)cc3F)ncnc2cc1OCC1CCN(C)CC1 | P12-Ichikawa | 79 |
| C[C@]12CC[C@@H]3c4ccc(O)cc4CC[C@H]3[C@@H]1C[C@@H](O)[C@@H]2O | P12-Ichikawa | 116 |
| NC(=O)C1CCCc2c1[nH]c1ccc(Cl)cc21 (stereo not drawn) | P12-Ichikawa | 111 |

====

# Test system: NOMO1
# PROTOCOL: cell viability relative to DMSO control; higher = less cytotoxic
# PARTICULARS: HPLM + 10% dialyzed FBS; 48 h; 0.569 µM
READOUT_KIND: cell viability (%)

| COMPOUND_STRUCTURE | READOUT_KIND | ASSAY_RESULT |
| --- | --- | --- |
| C/C(O)=C(\C#N)C(=O)Nc1cc(Br)ccc1Br | cell viability | 98.3 |
| Cc1ccc([S+](=O)([O-])Nc2nc3ccccc3nc2Nc2ccc3nsnc3c2)cc1 | cell viability | 111 |
| COc1ccc2c(c1)c(CC(=O)OCC(=O)O)c(C)n2C(=O)c1ccc(Cl)cc1 | cell viability | 128 |
| CCCCCCCCCC(=O)N[C@@H](Cc1c[nH]c2ccccc12)C(=O)N[C@H](CC(N)=O)C(=O)N[C@@H](CC(=O)O)C(=O)N[C@@H]1C(=O)NCC(=O)N[C@@H](CCCN)C(=O)N[C@@H](CC(=O)O)C(=O)N[C@H](C)C(=O)N[C@@H](CC(=O)O)C(=O)NCC(=O)N[C@H](CO)C(=O)N[C@@H]([C@@H](C)CC(=O)O)C(=O)N[C@@H](CC(=O)c2ccccc2N)C(=O)O[C@@H]1C | cell viability | 119 |
| CC1(N2CCC(n3c([C@@H]4CCCNC4)nc4ccccc43)CC2)CCCCCCC1 | cell viability | 116 |

====

# Test system: SEM cells
# PROTOCOL: cell viability relative to DMSO control; higher = less cytotoxic
# PARTICULARS: HPLM + 10% dialyzed FBS; 48 h; 1.71 µM

| COMPOUND | MEASUREMENT_UNIT | cell viability |
| --- | --- | --- |
| CCO[C@@H]1OC(=O)C[C@@H]1NC(=O)[C@@H]1CCCN1C(=O)[C@@H](NC(=O)c1ccc(N)c(Cl)c1)C(C)(C)C | % | 150 |
| Cc1csc(NC(=O)c2sc3nc4c(c(C(F)(F)F)c3c2N)CCC4)n1 | % | 101 |
| CN1CCC[C@@H]1CCO[C@](C)(c1ccccc1)c1ccc(Cl)cc1 | % | 115 |
| CN[C@@H]1Cc2cccc3[nH]c(=O)n(c23)C1 | % | 103 |
| CN(C)CCN(C)C(=O)c1ccc(NC(=O)Nc2ccc(-c3nc(N4CCOCC4)c4ccn(CC(F)(F)F)c4n3)cc2)cc1 | % | 48.6 |
| CCN(CC)CCCCNc1ncc2c(n1)N(C)C(=O)N(c1c(Cl)c(OC)cc(OC)c1Cl)C2 | % | 114 |
| ClC1=CC\2=C(OC3=C(C=CC=C3)\N=C2N4CCNCC4)C=C1 | % | 105 |
| CN1CCN2c3ncccc3Cc3ccccc3C2C1 (stereo unspecified) | % | 112 |
| CN1\N=C(N)/C2=C[N]([C@@H]3O[C@H](CO[P](O)(O)=O)[C@@H](O)[C@H]3O)C4=C2C1=NC=N4 | % | 8.14 |
| Nc1nnc(-c2cccc(Cl)c2Cl)c(N)n1 | % | 103 |
| CC(/C=C/C(=O)NO)=C\[C@@H](C)C(=O)c1ccc(N(C)C)cc1 | % | 8.01 |
| Cc1[nH]c(/C=C2\C(=O)Nc3ccccc32)c(C)c1CCC(=O)O | % | 32.1 |
| COC1=C2C[C@@H](C)C[C@H](OC)[C@H](O)[C@@H](C)/C=C(\C)[C@H](OC(N)=O)[C@@H](OC)/C=C/C=C(\C)C(=O)NC(=CC1=O)C2=O | % | 115 |
| CN(C)CCCN1c2ccccc2CCc2ccc(Cl)cc21 | % | 122 |
| CC(C)c1ccc(Cn2ccc3c4c(N)nc(NC5CC5)nc4ccc32)cc1 | % | 53.2 |
| COC[C@H](c1ccc(C(F)(F)F)cc1)N1CCN(C2(C)CCN(C(=O)c3c(C)ncnc3C)CC2)C[C@H]1C.O=C(O)/C=C\C(=O)O | % | 92 |
| COc1ccc([C@@H]2CC(=O)c3c(O)cc(O[C@@H]4O[C@H](CO[C@@H]5O[C@@H](C)[C@H](O)[C@@H](O)[C@H]5O)[C@@H](O)[C@H](O)[C@H]4O)cc3O2)cc1O | % | 116 |
| CC[C@H](NC(=O)[C@H](C)NC)C(=O)N1C[C@@H](O)C[C@H]1Cc1c(-c2[nH]c3cc(F)ccc3c2C[C@@H]2C[C@H](O)CN2C(=O)[C@H](CC)NC(=O)[C@H](C)NC)[nH]c2cc(F)ccc12 | % | 134 |
| CCCCCCOC(=O)/N=C(/N)c1ccc(NCc2nc3cc(C(=O)N(CCC(=O)OCC)c4ccccn4)ccc3n2C)cc1 | % | 134 |
| O=C(O)COCCN1CCN(C(c2ccccc2)c2ccc(Cl)cc2)CC1 (stereo unspecified) | % | 123 |
| N#Cc1ccnc(Nc2cc(C3CCN(C4COC4)CC3)cc(N3CCC(F)(F)C3)n2)c1 | % | 103 |

====

# Test system: P12-Ichikawa
# PROTOCOL: cell viability relative to DMSO control; higher = less cytotoxic
# PARTICULARS: RPMI 5 mM glucose + 10% dialyzed FBS; 48 h; 0.0632 µM
// reported cell viability per item
READOUT_KIND: cell viability (%)

| MOLECULE | ASSAY_RESULT |
| --- | --- |
| OC(=O)C(CC/1=C/C(=O)NC2=CC=CC=C12)NC(=O)C3=CC=C(Cl)C=C3 (configuration not stated) | 139 |
| CN1c2ccccc2C(=O)N2CCc3c([nH]c4ccccc34)C21 (configuration not stated) | 129 |
| O=C1Nc2ccc(I)cc2/C1=C/c1cc(Br)c(O)c(Br)c1 | 103 |
| CN1CCCC(CC1)N2\N=C(CC3=CC=C(Cl)C=C3)/C4=C(C=CC=C4)C2=O (configuration not stated) | 124 |
| O=C(Cc1ccc(-c2ccc(OCCN3CCOCC3)cc2)cn1)NCc1ccccc1 | 33.3 |
| COc1ccc2[nH]c([S+]([O-])Cc3ncc(C)c(OC)c3C)nc2c1 (configuration not stated) | 76.8 |
| COC(=O)C1C2CC3c4[nH]c5cc(OC)ccc5c4CCN3CC2CC(OC(=O)c2cc(OC)c(OC)c(OC)c2)C1OC (configuration not stated) | 104 |
| CCC\C1=C\C(=O)NC(=S)N1 | 118 |
| O=C\1N(N\C=C1[N]2C=CN=N2)C3=NC=NC(=C3)N4CCOCC4 | 72.2 |
| COc1ccc(Nc2nccc(NCCO)n2)cc1 | 78.9 |
| CC1(N2CCC(n3c([C@@H]4CCCNC4)nc4ccccc43)CC2)CCCCCCC1 | 112 |
| CN1CCN2c3ncccc3Cc3ccccc3C2C1 (configuration not stated) | 121 |

====

# Tested on: NOMO1
# PROTOCOL: cell viability relative to DMSO control; higher = less cytotoxic
# PARTICULARS: RPMI 5 mM glucose + 10% dialyzed FBS; 48 h; 0.569 µM

| MOLECULE | cell viability / % |
| --- | --- |
| C[S+](=O)([O-])c1ccc(C(=O)Nc2ccc(Cl)c(-c3ccccn3)c2)c(Cl)c1 | 139 |
| O=C(O)/C=C/c1ccc(O)c(O)c1 | 107 |
| Nc1nnc(-c2cccc(Cl)c2Cl)c(N)n1 | 99 |
| CC[C@H](NC(=O)[C@H](C)NC)C(=O)N1C[C@@H](O)C[C@H]1Cc1c(-c2[nH]c3cc(F)ccc3c2C[C@@H]2C[C@H](O)CN2C(=O)[C@H](CC)NC(=O)[C@H](C)NC)[nH]c2cc(F)ccc12 | 115 |
| CN[C@@H](C)C(=O)N[C@H]1CN(C(=O)CC(C)C)CC[C@H]2CC[C@@H](C(=O)NC(c3ccccc3)c3ccccc3)N2C1=O | 97.1 |
| C/C(O)=C(\C#N)C(=O)Nc1cc(Br)ccc1Br | 90 |
| COc1cccc([C@@H](C)NCCCc2ccccc2Cl)c1 | 87.9 |
| O=C1Nc2ccc(I)cc2/C1=C/c1cc(Br)c(O)c(Br)c1 | 104 |
| CC1(N2CCC(n3c([C@@H]4CCCNC4)nc4ccccc43)CC2)CCCCCCC1 | 130 |
| CN(C)CCOc1ccc(-c2nc(-c3ccncc3)c(-c3ccc4c(c3)CC/C4=N\O)[nH]2)cc1 | 115 |
| CN1\C(=C(\O)C2=C(C=CC=C2)[S+]1([O-])=O)C(=O)NC3=CC=CC=N3 | 116 |
| CCC(=O)N[C@H]1CC[C@H](C(=O)N(C)c2ccc(-c3nc4ccccc4o3)cc2)C1 | 94.1 |
| CCC\C1=C\C(=O)NC(=S)N1 | 113 |
| CCCCC(C=O)NC(=O)C(CC(C)C)NC(=O)OCc1ccccc1 (configuration not stated) | 90.4 |
| CO/C1=C/C(C)=C\[C@@H](C)[C@@H](O)[C@@H](C)C/C(C)=C\C=C/[C@H](OC)[C@@H]([C@@H](C)[C@@H](O)[C@H](C)[C@@]2(O)C[C@@H](O)[C@H](C)[C@@H](C(C)C)O2)OC1=O | 8.28 |
| C[S+](=O)([O-])c1cccc(CNc2nc(Nc3ccc4c(c3)CCC(=O)N4)ncc2C(F)(F)F)c1 | 105 |
| COc1ccc([C@@H]2CC(=O)c3c(O)cc(O[C@@H]4O[C@H](CO[C@@H]5O[C@@H](C)[C@H](O)[C@@H](O)[C@H]5O)[C@@H](O)[C@H](O)[C@H]4O)cc3O2)cc1O | 123 |
| ClC1=CC\2=C(OC3=C(C=CC=C3)\N=C2N4CCNCC4)C=C1 | 93.3 |
| O=C(Oc1ccc([N+](=O)[O-])cc1)N1CCC(C(O)(c2ccc3c(c2)OCO3)c2ccc3c(c2)OCO3)CC1 | 84.2 |
| C=CC(=O)Nc1cccc(Nc2nc(NC3CCC(N(C)C)CC3)nc3c2ncn3C(C)C)c1 (configuration not stated) | 105 |
| CC(C)c1cc(C(=O)N2Cc3ccc(CN4CCN(C)CC4)cc3C2)c(O)cc1O | 71.7 |
| CC(C)C[C@H](NC(=O)CNC(=O)c1cc(Cl)ccc1Cl)B(O)O | 28.3 |
| COC/1=C/C=C2\C(=C/C1=O)[C@H](CCC3=CC(=C(OC)C(=C23)OC)OC)NC(C)=O | 23.5 |
| O=C(O)CCn1c2c(c3ccccc31)C[C@H](N[S+](=O)([O-])c1ccc(F)cc1)CC2 | 109 |
| Cn1cc(/C=C2\C(=O)Nc3cccnc32)c2ccccc21 | 141 |
| COc1ncnc(N[S+](=O)([O-])c2ccc(N)cc2)c1OC | 123 |
| O=C(Nc1ncc(SCCN2CCCC2)s1)[C@]1(c2ccc([S+](=O)([O-])C3CC3)cc2)C[C@H]1C1CCCCC1 | 114 |
| NC(=O)c1cccc2cn(-c3ccc([C@@H]4CCCNC4)cc3)nc12 | 114 |
| CNC[C@H](O)c1cccc(O)c1 | 101 |
| CC[C@]12\C=C/CN3CC[C@]4([C@@H](N(C)C5=CC(=C(C=C45)[C@]6(C[C@H]7C[C@H](CN(C7)CC8=C6[NH]C9=C8C=CC=C9)C(C)(F)F)C(=O)OC)OC)[C@](O)([C@@H]1OC(C)=O)C(=O)OC)[C@H]23 | 24.2 |
| C[C@]12CC[C@@H]3c4ccc(O)cc4CC[C@H]3[C@@H]1C[C@@H](O)[C@@H]2O | 114 |
| Cc1cc(Nc2cc(CN3CCOCC3)c3nc(C)c(Cc4ccc(Cl)cc4F)n3n2)[nH]n1 | 109 |
